# System: U2OS
# assay: drug sensitivity score (DSS) for viability; higher = more toxic; extreme values may be limits of the assay
# conditions-used: 72 h
# drug sensitivity score per entry
Reply briefly: the number, and no unit.

Solved entries:
[[record]]
compound = "Nc1nc(NC[C@H]2CC[C@H](CNS(=O)(=O)c3cccc4ccccc34)CC2)nc2ccccc12"
recorded_metric = "drug sensitivity score"
recorded_number = 5.8

[[record]]
compound = "OC[C@@H](O)[C@@H](O)[C@H](O)[C@@H](O)CO"
recorded_metric = "drug sensitivity score"
recorded_number = 0

[[record]]
compound = "CCCCOc1cc(C(=O)OCCN(CC)CC)ccc1N"
recorded_metric = "drug sensitivity score"
recorded_number = 0

[[record]]
compound = "CCCCOc1ccc(-c2cncc(C(=O)NCc3cccnc3N3CCOCC3)c2)cc1Cl"
recorded_metric = "drug sensitivity score"
recorded_number = 0

[[record]]
compound = "COc1ccc(C(=O)NCc2ccc(OCCN(C)C)cc2)cc1OC [itopride]"
recorded_metric = "drug sensitivity score"
recorded_number = 0


Challenge: What drug sensitivity score value was documented for this compound, c1cnc2c([O][Ga]([O]c3cccc4cccnc34)[O]c3cccc4cccnc34)cccc2c1 [gallium-triquinolin-8-olate] ?
Response given: 4.2

Challenge: Note, next up: CCOC(=O)c1cnc2c(cnn2CC)c1NN=C(C)C [etazolate]
Response given: 0

Challenge: Note, next up: "Cc1ncc(C[n+]2csc(CCO)c2C)c(N)n1"
Response given: 0

====

# cell viability per entry
# System: U2OS
# assay: cell viability relative to DMSO; higher = less toxic
# conditions-used: 72 h; 1000 nM
Record the value in %, omitting the unit from your answer.

Solved entries:
[[record]]
compound = "O=S(=O)(O)c1ccc(O)cc1"
recorded_number = 97.6

[[record]]
compound = "Cc1ccc(S(=O)(=O)NC(=O)NN2CC3CCCC3C2)cc1 (stereo unspecified) [gliclazide]"
recorded_number = 93.3

[[record]]
compound = "N[C@@H](Cn1ccc(=O)n(Cc2ccccc2C(=O)O)c1=O)C(=O)O"
recorded_number = 92.7

[[record]]
compound = "CC(C)Cc1ccc([C@@H](C)C(=O)NCCO)cc1 (racemic)"
recorded_number = 100

[[record]]
compound = "CC1(C)[C@@H](O)CC[C@]2(C)[C@H]3C(=O)C=C4[C@@H]5C[C@@](C)(C(=O)O)CC[C@]5(C)CC[C@@]4(C)[C@]3(C)CC[C@@H]12"
recorded_number = 99.6


Lab note: next compound to report on.
Challenge: Any idea what cell viability came out for "Cc1cccc(-c2n[nH]cc2-c2ccc(F)c(-c3cnn(CCO)c3)c2)n1" on U2OS?
Response given: 89.3

====

# System: Calu-3
# assay: cell viability relative to DMSO; higher = less toxic
# conditions-used: 72 h; 10 nM
recorded-metric: cell viability (%)
Record the value in %, omitting the unit from your answer.

Solved entries:
[[record]]
compound = "O=C(NNc1ccccc1)c1ccncc1 [plurisin-1]"
recorded_number = 96.6

[[record]]
compound = "CN(C)CCc1c[nH]c2ccc(C[C@H]3COC(=O)N3)cc12 [zolmitriptan]"
recorded_number = 94.2


Challenge: What cell viability value was documented for this compound, CC(CCc1ccc(O)cc1)NCC(O)c1ccc(O)cc1 (stereo not drawn) [ractopamine] ?
Response given: 87.2

====

# System: Caco-2
# assay: drug sensitivity score (DSS) for viability; higher = more toxic; extreme values may be limits of the assay
# conditions-used: 72 h
TRUE means recorded drug sensitivity score is 1 or above; FALSE means it is below 1.

[[record]]
compound = "CNCCn1c(=O)c2cc(OC)c(OC)cc2c2cnc3cc4c(cc3c21)OCO4"
study_system = "Caco-2"
assigned_category = "TRUE"

[[record]]
compound = "COc1ccc(Cn2ccc3ccc(C(=O)NO)cc32)cc1"
study_system = "Caco-2"
assigned_category = "TRUE"

[[record]]
compound = "CCCN(CCC)C(=O)C(CCC(=O)O)NC(=O)c1ccccc1 (stereo not drawn) [proglumide]"
study_system = "Caco-2"
assigned_category = "FALSE"

[[record]]
compound = "CN1CCCC(CN2c3ccccc3Sc3ccccc32)C1 (stereo not drawn)"
study_system = "Caco-2"
assigned_category = "FALSE"

[[record]]
compound = "C[C@H](NC(=O)/C(C#N)=C/c1cccc(Br)n1)c1ccccc1"
study_system = "Caco-2"
assigned_category = "TRUE"

[[record]]
compound = "CC(=O)OCC(=O)[C@@]1(O)CC[C@H]2[C@@H]3CCC4=CC(=O)C=C[C@]4(C)[C@@]3(Cl)[C@@H](Cl)C[C@@]21C [dichlorisone-acetate]"
study_system = "Caco-2"
assigned_category = "FALSE"

[[record]]
compound = "O=C(NC(=O)c1c(F)cccc1Cl)NC1c2ccccc2-c2ccccc21"
study_system = "Caco-2"
assigned_category = "FALSE"

[[record]]
compound = "Cc1cc2c(OCC(CNC(C)(C)C)OC(=O)c3ccccc3)cccc2[nH]1 (stereo not drawn)"
study_system = "Caco-2"
assigned_category = "FALSE"

[[record]]
compound = "C=CC(=O)Nc1cccc(Nc2nc(Nc3ccc(Oc4ccnc(C(=O)NC)c4)cc3)ncc2F)c1"
study_system = "Caco-2"
assigned_category = "TRUE"

[[record]]
compound = "Cc1cccc(Cc2c[nH]cn2)c1C"
study_system = "Caco-2"
assigned_category = "FALSE"


Challenge: Is the recorded value of drug sensitivity score equal to or greater than 1 for this compound? c1ccc2c(c1)CCCC2C1=NCCN1 (stereo not drawn) [tetrahydrozoline]
Response given: FALSE

Challenge: Note, next up: "O=C(NNc1ccccc1)c1ccncc1"
Response given: FALSE

Challenge: Note, next up: "CCCCC1=NC2(CCCC2)C(=O)N1Cc1ccc(-c2ccccc2-c2nnn[nH]2)cc1"
Response given: FALSE

The values you see were collected from the supplement of paper PMC13380429.
